Test: Pharmacokinetic interaction of tegoprazan and aceclofenac, alone or in combination (Cohort 2)
Conditions: male, human, in vivo, 50 mg
measuredProperty: AUC (ng·h/mL)
Form entry: value (ng·h/mL) — number only.

(Q) Requested field: AUC. Item: `Cc1nc2cc(C(=O)N(C)C)cc(O[C@H]3CCOc4cc(F)cc(F)c43)c2[nH]1`
(A) 2680

---

Assay: Pharmacokinetic interaction of tegoprazan and celecoxib, alone or in combination (Cohort 3)
Settings: male, human, in vivo, 200 mg
measuredProperty: AUC (ng·h/mL)
Form entry: value (ng·h/mL) — number only.

(Q) Requested field: AUC. Item: Cc1ccc(-c2cc(C(F)(F)F)nn2-c2ccc(S(N)(=O)=O)cc2)cc1 [Celecoxib, celecoxib, reference compound]
(A) 7800

---

Assay: clinical
Set-up: dose or concentration left out as unconfirmed
measuredProperty: AUC (ng·h/mL)
Form entry: value (ng·h/mL) — number only.

(Q) Requested field: AUC. Item: O=C(O)COC(=O)Cc1ccccc1Nc1c(Cl)cccc1Cl [Aceclofenac, aceclofenac, reference compound]
(A) 20100

---

Experiment: Pharmacokinetic interaction of tegoprazan and celecoxib, alone or in combination (Cohort 3)
Settings: celecoxib; Treatment G: 50 mg tegoprazan once a day + 200 mg celecoxib twice a day, 7 days; N = 13
measuredProperty: Css,max, Geometric LS Mean (ng/mL)
Form entry: value (ng/mL) — number only.

(Q) Requested field: Css,max, Geometric LS Mean. Item: Cc1ccc(-c2cc(C(F)(F)F)nn2-c2ccc(S(N)(=O)=O)cc2)cc1 [Celecoxib, celecoxib, reference compound]
(A) 1350

---

Test: Pharmacokinetic interaction of tegoprazan and celecoxib, alone or in combination (Cohort 3)
Conditions: celecoxib; Treatment F: 200 mg celecoxib alone twice a day, 7 days; N = 13
measuredProperty: Css,max, Geometric LS Mean (ng/mL)
Form entry: value (ng/mL) — number only.

(Q) Requested field: Css,max, Geometric LS Mean. Item: Cc1ccc(-c2cc(C(F)(F)F)nn2-c2ccc(S(N)(=O)=O)cc2)cc1 [Celecoxib, celecoxib, reference compound]
(A) 1140

---

Assay: Pharmacokinetic interaction of tegoprazan and naproxen, alone or in combination (Cohort 1)
Type: in vivo, human (healthy adult males)
Settings: male, human, in vivo; tegoprazan; Treatment A: 50 mg tegoprazan alone once a day, 7 days; N = 17; read-out: AUCτ, Geometric LS Mean
measuredProperty: AUC

(Q) Requested field: AUC. Item: Cc1nc2cc(C(=O)N(C)C)cc(O[C@H]3CCOc4cc(F)cc(F)c43)c2[nH]1 [Tegoprazan]
(A) 2650 ng·h/mL

---

Test: Pharmacokinetic interaction of tegoprazan and celecoxib, alone or in combination (Cohort 3)
Details: male, human, in vivo, 50 mg
measuredProperty: AUC (ng·h/mL)
Form entry: value (ng·h/mL) — number only.

(Q) Requested field: AUC. Item: Cc1nc2cc(C(=O)N(C)C)cc(O[C@H]3CCOc4cc(F)cc(F)c43)c2[nH]1 [Tegoprazan]
(A) 2990
